// provenance: patent US8536202B2

Assay: log P determination by HPLC on reversed-phase columns (EEC Directive 79/831 Annex V.A8)
Type: physicochemical
Settings: pH 2.7
Procedure: Determination by LC-MS in the acidic range takes place at a pH of 2.7 using 0.1% aqueous formic acid and acetonitrile (containing 0.1% formic acid) as eluents, with a linear gradient from 10% acetonitrile to 95% acetonitrile. Calibration was carried out using unbranched alkan-2-ones (having 3 to 16 carbon atoms) with known log P values (the log P values are determined from the retention times by linear interpolation between two successive alkanones).
Recorded measurements of chromatographic logP, one per entry
// response body must contain only the number

CCNC(=O)c1cc(C#N)cc(C)c1NC(=O)c1cc(Cn2cc(C(F)(F)C(F)(F)F)nn2)nn1-c1ncccc1Cl [Example 319] :: 2.89
CNC(=O)c1cc(C#N)cc(C)c1NC(=O)c1cc(Cn2nc3ccc(C(F)(F)F)cc3n2)nn1-c1ncccc1Cl [Example 102] :: 3.19
Cc1cc(I)cc(C(=O)NC(C)(C)C)c1NC(=O)c1cc(Cn2cc(C(F)(F)C(F)(F)F)nn2)nn1-c1ncccc1Cl [Example 313] :: 4.09

// moving on: another record for chromatographic logP
Look up and report measured chromatographic logP for this entry: Cc1cc(Cl)cc(C(=O)NC2CC2)c1NC(=O)c1cc(Cn2nccn2)nn1-c1ncccc1Cl [Example 120]
2.26

---

Test system: caterpillars of the armyworm (Spodoptera frugiperda)
Assay: Spodoptera frugiperda test (SPODFR spray treatment)
Format: in vivo
Conditions: 168 h, 100 g/ha, after 7 days, read-out: activity in %
MEASURED QUANTITY: pest or weed control at 100 g/ha (%)
Write the number in % without appending the unit.

Some compounds with recorded pest or weed control at 100 g/ha:
Cc1cc(Cl)cc(C(=O)NC(C)C2CC2)c1NC(=O)c1cc(Cn2cc(C(F)(F)C(F)(F)F)nn2)nn1-c1ncccc1Cl (stereo not shown) :: 100
CNC(=O)c1cc(Cl)cc(C)c1NC(=O)c1cc(Cn2cc(-c3ccc(F)cc3)nn2)nn1-c1ncccc1Cl :: 83
Cc1cc(I)cc(C(=O)NC(C)C)c1NC(=O)c1cc(Cn2cc(C(F)(F)F)nn2)nn1-c1ncccc1Cl :: 100

Continue with the next compound.
Please look at this compound and report its pest or weed control at 100 g/ha: Cc1cc(I)cc(C(=O)NC2CC2)c1NC(=O)c1cc(Cn2ncc(C(F)(F)F)n2)nn1-c1ncccc1Cl
100

---

Experiment: log P determination by HPLC on reversed-phase columns (EEC Directive 79/831 Annex V.A8)
Format: physicochemical
Details: pH 2.7
Collected chromatographic logP values appear next to each entry.
Reply: number alone, nothing else.

Cc1cc(C#N)cc(C(=O)NC(C)(C)C)c1NC(=O)c1cc(Cn2ncc(-c3ccc(Cl)cc3)n2)nn1-c1ncccc1Cl :: 4.06
Cc1cc(I)cc(C(N)=O)c1NC(=O)c1cc(Cn2ncc(C(F)(C(F)(F)F)C(F)(F)F)n2)nn1-c1ncccc1Cl :: 3.7
CNC(=O)c1cc(C#N)cc(C)c1NC(=O)c1cc(Cn2ncc(-c3ccccc3Cl)n2)nn1-c1ncccc1Cl :: 3.21

Kindly indicate its recorded chromatographic logP. Item: CNC(=O)c1cc(Cl)cc(C)c1NC(=O)c1cc(Cn2cc(-c3ccc(Cl)cc3Cl)nn2)nn1-c1ncccc1Cl
3.2

Supply chromatographic logP value. Item: Cc1cc(Cl)cc(C(=O)NC(C)(C)C)c1NC(=O)c1cc(Cn2ncc(C(C)C)n2)nn1-c1ncccc1Cl
3.86

Supply reported chromatographic logP belonging to this compound: CNC(=O)c1cc(Cl)cc(C)c1NC(=O)c1cc(Cn2nnc3ccc(F)cc32)nn1-c1ncccc1Cl
2.57

Provide one value: measured chromatographic logP of Cc1cc(C#N)cc(C(=O)NC2CC2)c1NC(=O)c1cc(Cn2nc(C(F)(F)F)c(C(F)(F)F)n2)nn1-c1ncccc1Cl
3.59

---

Catalogue of chromatographic logP values
Experiment: log P determination by HPLC on reversed-phase columns (EEC Directive 79/831 Annex V.A8)
Format: physicochemical
Conditions: reversed-phase C18 HPLC column, pH 2.7; HPLC on reversed-phase columns (C 18), EEC Directive 79/831 Annex V.A8; read-out: logP

A selection of reference data follows.
CCNC(=O)c1cc(C#N)cc(C)c1NC(=O)c1cc(Cn2ncc(C(F)(F)F)n2)nn1-c1ccccc1Cl :: 3.3
CSC[C@H](C)NC(=O)c1cc(Cl)cc(Cl)c1NC(=O)c1cc(Cn2cc(C(F)(C(F)(F)F)C(F)(F)F)nn2)nn1-c1ncccc1Cl :: 4.02
CSC[C@H](C)NC(=O)c1cc(C#N)cc(C)c1NC(=O)c1cc(Cn2nc(C(F)(F)F)c(C(F)(F)F)n2)nn1-c1ncccc1Cl :: 4.05
Cc1cc(C#N)cc(C(=O)NC(C)(C)C)c1NC(=O)c1cc(Cn2nnc3c(Br)cc(OC(F)(F)F)cc32)nn1-c1ncccc1Cl :: 4.09

Input CC(NC(=O)c1cc(Cl)cc(Cl)c1NC(=O)c1cc(Cn2ncc(C(F)(C(F)(F)F)C(F)(F)F)n2)nn1-c1ncccc1Cl)C1CC1 (stereo not drawn) , output reported chromatographic logP.
4.49

Look up and report measured chromatographic logP for this entry: CNC(=O)c1cc(C#N)cc(C)c1NC(=O)c1cc(Cn2cc(C(F)(F)F)nn2)nn1-c1ccccc1Cl
2.63

---

This section presents compounds with their documented chromatographic logP values.
Test: log P determination by HPLC on reversed-phase columns (EEC Directive 79/831 Annex V.A8)
Type: physicochemical
Settings: pH 2.7
Procedure: Determination by LC-MS in the acidic range takes place at a pH of 2.7 using 0.1% aqueous formic acid and acetonitrile (containing 0.1% formic acid) as eluents, with a linear gradient from 10% acetonitrile to 95% acetonitrile. Calibration was carried out using unbranched alkan-2-ones (having 3 to 16 carbon atoms) with known log P values (the log P values are determined from the retention times by linear interpolation between two successive alkanones).
Give a plain numeric answer without units written out.

Examples with answers:
CNC(=O)c1cc(Cl)cc(C)c1NC(=O)c1cc(Cn2nc3cc(Cl)c(Cl)cc3n2)nn1-c1ncccc1Cl :: 3.73
Cc1cc(C#N)cc(C(=O)NC(C)C2CC2)c1NC(=O)c1cc(Cn2ncc(C(F)(F)F)n2)nn1-c1ncccc1Cl (stereo not shown) :: 3.39
CSC[C@H](C)NC(=O)c1cc(C#N)cc(C)c1NC(=O)c1cc(Cn2ncc(C(F)(F)F)n2)nn1-c1ncccc1Cl :: 3.33
Cc1cc(Cl)cc(C(N)=O)c1NC(=O)c1cc(Cn2ncc(C(F)(C(F)(F)F)C(F)(F)F)n2)nn1-c1ncccc1Cl :: 3.48
CNC(=O)c1cc(Cl)cc(C)c1NC(=O)c1cc(Cn2ncc(C3CC3)n2)nn1-c1ncccc1Cl :: 2.85

Annotate the compound Cc1cc(I)cc(C(=O)NCC2CC2)c1NC(=O)c1cc(Cn2cc(C(F)(F)F)nn2)nn1-c1ncccc1Cl with its measured chromatographic logP.
3.45

Retrieve chromatographic logP measured for NC(=O)c1cc(Cl)cc(Cl)c1NC(=O)c1cc(Cn2ncc(C(F)(C(F)(F)F)C(F)(F)F)n2)nn1-c1ncccc1Cl and print it.
3.46

---

Tested on: caterpillars of the armyworm (Spodoptera frugiperda)
Experiment: Spodoptera frugiperda test (SPODFR spray treatment)
Type: in vivo
Conditions: 168 h, 100 g/ha, after 7 days, read-out: activity in %
Known pest or weed control at 100 g/ha of a selection of molecules
Value expressed in %; do not type the unit.

Cc1cc(C#N)cc(C(=O)NC(C)(C)C)c1NC(=O)c1cc(Cn2ncc(-c3ccc(Cl)cc3Cl)n2)nn1-c1ncccc1Cl :: 100
CNC(=O)c1cc(Cl)cc(Cl)c1NC(=O)c1cc(Cn2cc(C(F)(F)F)nn2)nn1-c1ncccc1Cl :: 100
Cc1cc(C#N)cc(C(=O)NC(C)(C)C)c1NC(=O)c1cc(Cn2cc(-c3cccc(Cl)c3)nn2)nn1-c1ncccc1Cl :: 83

Write pest or weed control at 100 g/ha of CSC[C@H](C)NC(=O)c1cc(I)cc(C)c1NC(=O)c1cc(Cn2ncc(C(F)(F)F)n2)nn1-c1ncccc1Cl ; system used: caterpillars of the armyworm (Spodoptera frugiperda)
100

---

Form field: chromatographic logP (one value per entry).
Assay: log P determination by HPLC on reversed-phase columns (EEC Directive 79/831 Annex V.A8)
Type: physicochemical
Settings: pH 2.7

Observe how each entry below is paired with its result.
Cc1cc(I)cc(C(N)=O)c1NC(=O)c1cc(Cn2ncc(C(F)(F)F)n2)nn1-c1ncccc1Cl :: 2.89
Cc1cc(C#N)cc(C(=O)NCC2CC2)c1NC(=O)c1cc(Cn2nc(C(F)(F)F)c(C(F)(F)F)n2)nn1-c1ncccc1Cl :: 3.89
Cc1cc(C#N)cc(C(=O)NC(C)(C)C)c1NC(=O)c1cc(Cn2ncc(-c3ccc(Cl)cc3Cl)n2)nn1-c1ncccc1Cl :: 4.67

Please supply the value of reported chromatographic logP for the item CC(C)NC(=O)c1cc(Cl)cc(Cl)c1NC(=O)c1cc(Cn2ncc(C(F)(C(F)(F)F)C(F)(F)F)n2)nn1-c1ncccc1Cl
4.17
